These entries and their values trace back to patent EP2608671B1.

# Test system: WM-164
# METHOD_NOTES: SRB cell growth inhibition (cytotoxicity) assay
# Format: cell-based, human
# PROTOCOL_CONDITIONS: Homo sapiens, WM164, 96 h, SRB assay, 96 h; Table 2; read-out: IC50 ± SEM (nM), WM-164
ENDPOINT_NAME: IC50 (nM)
Give the value, in units of nM, as a plain number.

The recorded IC50 for entry COc1cc(C(=O)c2csc(-c3ccccc3)n2)cc(OC)c1OC [1h] equals 64

----------
# Tested on: LNCaP
# METHOD_NOTES: cells
# PROTOCOL_CONDITIONS: Homo sapiens, 96 h, read-out: IC50 ± SEM (nM), LNCaP
ENDPOINT_NAME: IC50 (nM)
// units = nM; emit number, no label

{"columns": ["COMPOUND", "IC50 [nM]"],
 "data": [
  ["O=C(c1cc(O)c(O)c(O)c1)c1c[nH]c(-c2ccc(Cl)cc2)n1 [13fa]", 10000],
  ["COc1cc(C(=O)c2c[nH]c(-c3ccc(C)cc3)n2)cc(OC)c1O [12dc]", 134],
  ["COc1cc(C(=O)c2csc(Nc3ccc(Cl)cc3)n2)cc(OC)c1OC", 45]
]}

Continue with the compound presented below.
Record COc1cc(/C(=N\N)c2csc(-c3ccccc3)n2)cc(OC)c1OC [2d-trans] . Reported IC50: 1300

----------
# Test system: DU 145
# PROTOCOL_CONDITIONS: read-out: IC50 ± SEM (nM) Dn-145; Table 21, Prostate, n = 3
ENDPOINT_NAME: IC50 (nM)
Please respond with the number in nM and leave the unit unwritten.

{"columns": ["COMPOUND", "ENDPOINT_NAME", "UNIT", "REPORTED_RESULT"],
 "data": [
  ["COc1cc(C(=O)c2csc(-c3ccc(O)cc3)n2)cc(OC)c1OC", "IC50", "nM", 116]
]}

Let's switch to this compound now.
The observed IC50 for COc1cc(C(=O)c2csc(-c3ccccc3)n2)cc(OC)c1OC when tested with DU 145 stands at 71

----------
# Test system: DU 145
# METHOD_NOTES: cells
# PROTOCOL_CONDITIONS: Homo sapiens, DU-145, 96 h, read-out: IC50 ± SEM (nM), DU 145
ENDPOINT_NAME: IC50

Some solved entries appear below for comparison.
{"columns": ["COMPOUND", "IC50"],
 "data": [
  ["COc1cc(C(=O)c2c[nH]c(Nc3ccccc3)n2)cc(OC)c1OC", "> 1000 nM"],
  ["COc1cc(C(=O)N2CCC(c3ccccc3)CC2)cc(OC)c1OC", "> 20000 nM"]
]}

Briefly, IC50 measured for COc1cc(C(=O)c2cc(-c3ccccc3)on2)cc(OC)c1OC : > 10000 nM

----------
# Test system: PC-3
# METHOD_NOTES: cells
# PROTOCOL_CONDITIONS: Homo sapiens, PC-3, 96 h, read-out: IC50 ± SEM (nM), PC-3
ENDPOINT_NAME: IC50

Previously resolved entries follow.
{"columns": ["COMPOUND", "IC50"],
 "data": [
  ["COc1cc(S(=O)(=O)c2cccc(-c3ccccc3)c2)cc(OC)c1OC", "> 10000 nM"],
  ["COc1cccc(C(=O)c2cn(S(=O)(=O)c3ccccc3)c(-c3ccccc3)n2)c1 [11ac]", "> 10000 nM"]
]}

The recorded IC50 with PC-3 for COc1cc(Sc2cccc(-c3ccccc3)c2)cc(OC)c1OC was > 10000 nM
